Data origin, for the record: PubChem BioAssay (NCI)

# Tested on: UACC-62 melanoma
# protocol notes: NCI tumour cell line growth inhibition, 48 h
Where a SMILES comes first, the peptide text is derived from it. [ ]: non-standard residue; d: D form. The star is where a group is joined. Bn2Val = CC(C)[C@@H](C(=O)*)N(Cc1ccccc1)Cc1ccccc1; NH(3,4-diMeO-benzyl) = COc1ccc(CN*)cc1OC; NMeV = CN[C@H](C(=O)O)C(C)C
TGI reference
property name: TGI

molecule: C=CCC1C(=O)Nc2cccc3ncn(c23)C1=O (centres undefined)
observed result: > 100 µM
//
molecule: C/C(=C\c1ccn(-c2ccc(N)cc2F)n1)[C@@H]1C[C@@H]2O[C@]2(C)CCC[C@H](C)[C@H](O)[C@@H](C)C(=O)C(C)(C)[C@@H](O)CC(=O)O1
observed result: > 50 µM
//
molecule: CCOC(=O)c1cc2cc(C)cc(C(=O)c3ccc([N+](=O)[O-])cc3)c2[nH]1
observed result: > 100 µM
//
molecule: COc1ccc(CNC(=O)[C@@H]2CCCN2C(=O)[C@@H]2CCCN2C(=O)[C@H](C(C)C)N(C)C(=O)[C@@H](NC(=O)[C@H](C(C)C)N(Cc2ccccc2)Cc2ccccc2)C(C)C)cc1OC (Bn2Val-V[NMeV]PP-{NH(3,4-diMeO-benzyl)})
observed result: 29.7 µM
//
molecule: COc1ccc(C2C(C=O)C(N3CCN(C)CC3)=Nc3nc4ccccc4n32)cc1 (centres undefined)
observed result: 36.5 µM
//
molecule: CCOC(=O)NC1CC2CCC1(OC)C=C2C (centres undefined)
observed result: > 100 µM
//
molecule: FC(F)(F)c1cccc(C2SCc3nc4ccccc4n32)c1 (centres undefined)
observed result: > 100 µM
//
molecule: O=C1NC2C(CCO)CC=C[C@H]2c2cc3c(cc21)OCO3 (some centres undefined)
observed result: > 100 µM
//
molecule: Cc1cc(=O)[nH]c(NNC(C#N)c2ccco2)n1 (centres undefined)
observed result: > 100 µM
//
molecule: CCOCCOC[C@H]1CCCN(c2ccnc3sc(C(N)=O)c(N)c23)C1
observed result: > 100 µM
//
molecule: CCOC(=O)C(C(=O)OCC)=c1sc(=C(C(=O)OCC)C(=O)OCC)s1
observed result: > 100 µM
//
molecule: CCN(CC)CC[n+]1cc2cc(OC)c(OC)cc2c2ccc3cc4c(cc3c21)OCO4
observed result: 4.89 µM
//
molecule: CCOP(=O)(OCC)C(F)(F)Cc1cnc(C)c2c1COC(C)(C)O2
observed result: > 10 µM
//
molecule: C[CH2][Sn]([CH2]C)([O]C(=O)c1ccc(F)cc1)[O][Sn]([CH2]C)([CH2]C)[O]C(=O)c1ccc(F)cc1
observed result: > 100 µM
//
molecule: O=c1c2cc(S(=O)(=O)Nc3c(Cl)cccc3Cl)ccc2ncn1NS(=O)(=O)c1ccc2ccccc2c1
observed result: > 62.5 µM
//
molecule: O=C(OCc1ccccc1)N1CCCc2c(n(S(=O)(=O)c3ccccc3)c3ccccc23)C1
observed result: > 100 µM
//
molecule: CCOC(=O)c1cc(OC(=O)CC)c2c(OC)ccc(OC)c2c1
observed result: > 100 µM
//
molecule: C=C[C@H]1C=Cc2c(OC)cccc2[C@@H]1COP1(=S)NC(C)C(c2ccccc2)O1 (some centres undefined)
observed result: > 100 µM
//
molecule: COc1cc(Nc2nc3cc(C(F)(F)F)ccc3nc2C)cc(OC)c1OC
observed result: 13.3 µM
